- MEASUREMENT_TARGET: T1, human G-CSF receptor (human, UniProt Q99062 25-836)
- T1 sequence (looked up): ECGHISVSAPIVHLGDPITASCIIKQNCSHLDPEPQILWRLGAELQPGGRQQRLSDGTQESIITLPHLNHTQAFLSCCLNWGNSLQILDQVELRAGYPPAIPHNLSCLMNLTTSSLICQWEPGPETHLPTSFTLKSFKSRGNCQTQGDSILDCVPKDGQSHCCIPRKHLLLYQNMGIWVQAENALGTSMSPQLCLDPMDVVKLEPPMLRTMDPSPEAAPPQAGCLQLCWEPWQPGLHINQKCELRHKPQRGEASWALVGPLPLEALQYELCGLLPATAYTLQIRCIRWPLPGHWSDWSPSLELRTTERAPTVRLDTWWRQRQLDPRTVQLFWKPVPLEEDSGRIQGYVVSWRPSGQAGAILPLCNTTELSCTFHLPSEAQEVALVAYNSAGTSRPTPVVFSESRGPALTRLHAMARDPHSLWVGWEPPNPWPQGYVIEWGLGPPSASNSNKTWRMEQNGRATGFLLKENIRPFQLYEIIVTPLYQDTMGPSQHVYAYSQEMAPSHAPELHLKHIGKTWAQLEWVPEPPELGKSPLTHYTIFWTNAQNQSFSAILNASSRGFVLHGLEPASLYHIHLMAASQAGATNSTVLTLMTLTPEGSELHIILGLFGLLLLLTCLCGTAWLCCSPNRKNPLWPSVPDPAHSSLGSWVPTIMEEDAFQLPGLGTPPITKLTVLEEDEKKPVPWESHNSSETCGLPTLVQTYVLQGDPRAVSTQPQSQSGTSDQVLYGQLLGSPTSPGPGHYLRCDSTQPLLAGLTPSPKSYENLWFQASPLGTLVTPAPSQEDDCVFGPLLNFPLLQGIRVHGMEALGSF
- ASSAY_METHOD_TEXT: cell-based or functional assay
ASSAY_METRIC: EC50 (% of hG-CSF) non-conjugated

Data request: Entry G-CSF variant K16/34/40R Q120K, non-conjugated (ligand) TPLGPASSLPQSFLLRCLEQVRKIQGDGAALQERLCATYRLCHPEELVLLGHSLGIPWAPLSSCPSQALQLAGCLSQLHSGLFLYQGLLQALEGISPELGPTLDTLQLDVADFATTIWQKMEELGMAPALQPTQGAMPAFASAFQRRAGGVLVASHLQSFLEVSYRVLRHLAQP has what EC50 (% of hG-CSF) non-conjugated?
Data returned: 30 % of hG-CSF

// switching to the query binder
Data request: Entry G-CSF variant K16/34/40R S62K, non-conjugated (ligand) TPLGPASSLPQSFLLRCLEQVRKIQGDGAALQERLCATYRLCHPEELVLLGHSLGIPWAPLKSCPSQALQLAGCLSQLHSGLFLYQGLLQALEGISPELGPTLDTLQLDVADFATTIWQQMEELGMAPALQPTQGAMPAFASAFQRRAGGVLVASHLQSFLEVSYRVLRHLAQP has what EC50 (% of hG-CSF) non-conjugated?
Data returned: 10 % of hG-CSF
